- Target of assay: T1, D1 domain of human IL-2Rγ extracellular domain expressed with a C-terminal myc-myc-hexahistidine tag (human)
- T1 construct: also called human IL2Rγ domain 1
- T1 chain: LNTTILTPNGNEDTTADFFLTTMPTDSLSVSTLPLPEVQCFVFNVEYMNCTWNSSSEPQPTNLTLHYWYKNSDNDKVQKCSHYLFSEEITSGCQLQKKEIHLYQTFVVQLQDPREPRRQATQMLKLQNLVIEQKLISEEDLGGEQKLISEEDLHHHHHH
- Measurement description: SPR, mAb captured on anti-hFc, 37 C
Parameter: 100 nM Ag Bound (RU)
Just the number in RU, nothing appended.

Solved entries (count: 2):
Binder	100 nM Ag Bound / RU
H4H12871P (antibody, human IgG4 S228P, kappa, V domains shown, human IgG4; also called REGN9434) VH: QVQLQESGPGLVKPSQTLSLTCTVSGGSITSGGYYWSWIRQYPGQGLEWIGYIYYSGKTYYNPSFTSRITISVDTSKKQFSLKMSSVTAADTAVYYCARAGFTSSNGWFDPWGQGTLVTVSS VL: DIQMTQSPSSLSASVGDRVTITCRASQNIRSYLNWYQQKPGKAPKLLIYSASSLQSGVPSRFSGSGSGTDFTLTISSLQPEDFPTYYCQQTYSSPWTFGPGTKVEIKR	33
H4H12884P (antibody, human IgG4 S228P, kappa, V domains shown, human IgG4) VH: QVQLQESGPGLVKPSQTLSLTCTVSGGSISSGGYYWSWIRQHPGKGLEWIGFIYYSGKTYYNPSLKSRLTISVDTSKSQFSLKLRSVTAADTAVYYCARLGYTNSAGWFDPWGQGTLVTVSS VL: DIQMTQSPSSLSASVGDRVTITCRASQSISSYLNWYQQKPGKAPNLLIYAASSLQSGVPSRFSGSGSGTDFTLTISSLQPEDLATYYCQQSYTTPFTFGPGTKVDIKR	32

// switching to the query binder
Data request, read-out 100 nM Ag Bound, for H4H12900P (antibody, human IgG4 S228P, kappa, V domains shown, human IgG4) VH: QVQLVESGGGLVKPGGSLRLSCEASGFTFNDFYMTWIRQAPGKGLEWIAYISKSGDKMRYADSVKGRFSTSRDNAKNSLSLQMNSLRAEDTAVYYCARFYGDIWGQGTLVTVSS VL: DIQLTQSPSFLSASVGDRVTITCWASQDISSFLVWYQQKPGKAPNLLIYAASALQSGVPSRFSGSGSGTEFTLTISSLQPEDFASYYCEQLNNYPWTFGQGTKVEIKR 2
